Some substances, each annotated with its measured CL/F.
assay: Pharmacokinetics in CD-1 mice, single 100 nmol/kg subcutaneous dose; assay type: in vivo; conditions: mouse, plasma, sc, male CD-1 mice, mean
*1 amine or outer side, *2 acyl side, *3 side chain or, on linkers, in order; H or OH if unused. Side-chain parts run from the residue outwards. [ ]: non-standard residue; d: D form. The star is where a group is joined. C20 diacid = O=C(O)CCCCCCCCCCCCCCCCCCC(=O)*; γGlu = O=C(O)[C@H](CCC(=O)[*:2])N[*:1]; εLys = N[C@@H](CCCCN[*:1])C(=O)[*:2]; pGlu = O=C1CC[C@@H](C(=O)O)N1; αMeL = CC(C)C[C@](C)(N)C(=O)O; AEEA = NCCOCCOCC(=O)O; Aib = CC(C)(N)C(=O)O
Form entry: value (mL/h/kg) — number only.

These solved cases illustrate the format of a correct answer.
INSERT INTO measurements (substance, assay_endpoint, value_reported) VALUES
  ('{C20 diacid-εLys-AEEA-γGlu}-GSPSIVTS[αMeL]DVPT[Aib][αMeL]LQKILEQERAEKARQQATEAAEILAQV-NH2 [SEQ ID NO: 25]', 'CL/F', 4.01),
  ('[pGlu]GSPSGIVTS[αMeL]DVPT[Aib][αMeL]LQKILEQERAEKARQQAK([γGlu-AEEA-εLys-C20 diacid])EAAEILAQV-NH2 [SEQ ID NO: 22]', 'CL/F', 6.76);

Here's the next entry for you.
Query: Form field: reported CL/F of Ac-GSPSIVTS[αMeL]DVPT[Aib][αMeL]LQKILEQERAEKARQQAK([γGlu-AEEA-εLys-C20 diacid])EAAEILAQV-NH2 [SEQ ID NO: 1]
Result: 3.94

---

experiment: Pharmacokinetics in Cynomolgus monkeys, single subcutaneous or intravenous dose; type: in vivo; conditions: both sexes, cynomolgus monkey, plasma, single intravenous dose 183 nmol/kg, Mean, read-out: C0
*1 amine or outer side, *2 acyl side, *3 side chain or, on linkers, in order; H or OH if unused. Side-chain parts run from the residue outwards. [ ]: non-standard residue; d: D form. The star is where a group is joined. C20 diacid = O=C(O)CCCCCCCCCCCCCCCCCCC(=O)*; γGlu = O=C(O)[C@H](CCC(=O)[*:2])N[*:1]; εLys = N[C@@H](CCCCN[*:1])C(=O)[*:2]; pGlu = O=C1CC[C@@H](C(=O)O)N1; αMeL = CC(C)C[C@](C)(N)C(=O)O; AEEA = NCCOCCOCC(=O)O; Aib = CC(C)(N)C(=O)O
assay endpoint: C0 (µM)
Form entry: value (µM) — number only.

Query: Form field: reported C0 of [pGlu]GSPSGIVTS[αMeL]DVPT[Aib][αMeL]LQKILEQERAEKARQQAK([γGlu-AEEA-εLys-C20 diacid])EAAEILAQV-NH2 [SEQ ID NO: 22]
Result: 4.74

---

test: Pharmacokinetics in Cynomolgus monkeys, single subcutaneous or intravenous dose; assay type: in vivo; settings: both sexes, cynomolgus monkey, plasma, sc, 190 nmol/kg, single subcutaneous dose 190 nmol/kg, individual animal, read-out: Tmax
*1 amine or outer side, *2 acyl side, *3 side chain or, on linkers, in order; H or OH if unused. [ ]: non-standard residue; d: D form. The star is where a group is joined. C20 diacid = O=C(O)CCCCCCCCCCCCCCCCCCC(=O)*; γGlu = O=C(O)[C@H](CCC(=O)[*:2])N[*:1]; εLys = N[C@@H](CCCCN[*:1])C(=O)[*:2]; αMeL = CC(C)C[C@](C)(N)C(=O)O; AEEA = NCCOCCOCC(=O)O; Aib = CC(C)(N)C(=O)O
assay endpoint: Tmax
Answer shape: numeric part, then the unit.

Query: Form field: reported Tmax of {C20 diacid-εLys-AEEA-γGlu}-GSPSIVTS[αMeL]DVPT[Aib][αMeL]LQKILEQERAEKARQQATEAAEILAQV-NH2 [SEQ ID NO: 25]
Result: 24 h
